biological target: Adenosylhomocysteinase (Homo sapiens); experiment: Inhibition of AHCY in human SH-SY5Y cells assessed as formation of homocysteine after 48 hrs by HPLC analysis; format: cell-based
Quantity Measured: IC50 (nM)

INSERT INTO assay_data (molecule, quantity_measured, value_operator, val) VALUES
  ('Nc1ncnc2c1nc(Br)n2[C@@H]1CC[C@@H](O)[C@H]1O', 'IC50', '>', 10000),
  ('Nc1ncc(F)c2c1ncn2[C@@H]1C(F)C[C@@H](O)[C@H]1O (mixture of isomers)', 'IC50', '=', 2.7),
  ('Nc1ncc(Cl)c2c1ncn2[C@@H]1CC[C@@H](O)[C@H]1O', 'IC50', '=', 2.2),
  ('Nc1nccn2c([C@@H]3CC[C@@H](O)[C@H]3O)cnc12', 'IC50', '=', 1.5),
  ('Nc1ncnc2c1nc(F)n2[C@@H]1CC[C@@H](O)[C@H]1O', 'IC50', '>', 10000);

* * *

target: Adenosylhomocysteinase (Homo sapiens, UniProt P23526); assay: Inhibition of recombinant human AHCY using SAH as substrate assessed as formation of homocysteine after 10 mins
Sequence (P23526 whole entry): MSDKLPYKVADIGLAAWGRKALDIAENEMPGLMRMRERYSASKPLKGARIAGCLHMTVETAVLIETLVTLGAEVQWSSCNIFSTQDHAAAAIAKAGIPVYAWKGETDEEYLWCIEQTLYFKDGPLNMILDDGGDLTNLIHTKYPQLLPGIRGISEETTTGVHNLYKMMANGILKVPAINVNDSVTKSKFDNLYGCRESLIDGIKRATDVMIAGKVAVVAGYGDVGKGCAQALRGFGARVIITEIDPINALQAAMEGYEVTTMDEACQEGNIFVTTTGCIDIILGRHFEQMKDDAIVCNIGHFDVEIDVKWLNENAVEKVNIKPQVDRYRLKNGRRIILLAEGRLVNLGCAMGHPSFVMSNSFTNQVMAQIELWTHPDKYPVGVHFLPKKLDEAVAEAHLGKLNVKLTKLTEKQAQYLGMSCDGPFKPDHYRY
Quantity Measured: IC50 (µM)

INSERT INTO measurements (test_smiles, quantity_measured, unit_annotation, value_operator, val) VALUES
  ('Nc1ncc(F)c2c1ncn2[C@H]1[C@H](O)[C@H](O)[C@@H]2C[C@@H]21', 'IC50', 'µM', '>', 10),
  ('Nc1ncc(F)c2c1ncn2[C@@H]1C[C@@H](F)[C@@H](O)[C@H]1O', 'IC50', 'µM', '>', 10),
  ('Nc1ncnc2c1nc(Br)n2[C@@H]1CC[C@@H](O)[C@H]1O', 'IC50', 'µM', '>', 10),
  ('Nc1ncc(F)c2c1ncn2[C@@H]1C[C@@H](O)[C@@H](O)[C@H]1O', 'IC50', 'µM', '>', 10),
  ('Nc1ncnc2c1nc(Cl)n2[C@@H]1CC[C@@H](O)[C@H]1O', 'IC50', 'µM', '>', 10),
  ('Nc1ncnc2c1ncn2[C@@H]1CC[C@@H](O)[C@H]1O', 'IC50', 'µM', '=', 0.055),
  ('Nc1ncnc2c1ncn2[C@@H]1C=C(CCl)[C@@H](O)[C@H]1O', 'IC50', 'µM', '=', 0.195),
  ('Nc1nc(F)c(F)c2c1ncn2[C@@H]1CC[C@@H](O)[C@H]1O', 'IC50', 'µM', '=', 3.64),
  ('Nc1nc(F)nc2c1ncn2[C@@H]1CC[C@@H](O)[C@H]1O', 'IC50', 'µM', '=', 2.12),
  ('Nc1nc(F)cc2c1ncn2[C@@H]1CC[C@@H](O)[C@H]1O', 'IC50', 'µM', '=', 4.83),
  ('Nc1ncnc2c1nc(F)n2[C@@H]1CC[C@@H](O)[C@H]1O', 'IC50', 'µM', '>', 10);
